Data credit: PubChem BioAssay AID504690

# inhibition annotations
Test system: glucose-6-phosphate dehydrogenase-6-phosphogluconolactonase (Plasmodium falciparum 3D7)
RUN_DESCRIPTION: inhibition of malaria parasite G6PD (PfGluPho) – biochemical, fluorescence intensity, uHTS, primary screen (AID 504690);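 note: 0% = DMSO wells with substrate and 100% = DMSO wells lacking glucose-6-phosphate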
CONDITION_SET: PfGluPho enzyme, NADPH resazurin-diaphorase fluorescence; at 20 µM; active compounds read high
Hit rate of the full screen: of about 350,000 compounds, about 2,700 (0.77%) were called active. The full list was thinned out, with actives kept by preference.
Hi! Could you send only the number? It should be in %, unit omitted.

INSERT INTO results (compound, units_of_measure, obs_value) VALUES
  ('O=C(CN1CCN(c2ccc(O)cc2)CC1)Nc1cc(S(=O)(=O)N2CCOCC2)ccc1Cl', '%', 73.8),
  ('CCN1CCCC1CNC(=O)c1ccc2c(c1)NC(=O)/C(=C\c1ccccc1F)S2 (stereo unspecified)', '%', 127),
  ('CCOC(=O)c1cccc(NC(=O)CCn2nnc3ccccc32)c1', '%', -9.98),
  ('CC1=CC(C)(C)Nc2ccc(OC(=O)CN3C(=O)C4CCCCC4C3=O)cc21 (stereo unspecified)', '%', 70.6),
  ('O=C(Nc1ccc(F)cc1)c1cc2c(s1)CCCC2', '%', 75.7),
  ('CC(C)(C)NC(=O)COc1ccc(CNc2ccc3[nH]c(=O)[nH]c3c2)cc1', '%', 94.7),
  ('Cn1c(-c2sccc2OCc2cccc(C(F)(F)F)c2)n[nH]c1=S', '%', 65.3),
  ('O=C(NCCN=C1NS(=O)(=O)c2ccccc21)c1ccc(S(=O)(=O)N2CCOCC2)cc1', '%', 4.66);

What value of inhibition on glucose-6-phosphate dehydrogenase-6-phosphogluconolactonase (Plasmodium falciparum 3D7) does Cc1ccc(Cl)cc1NC(=O)CN1CCN(S(=O)(=O)N2CCOCC2)CC1 have?
-17

// fetch glucose-6-phosphate dehydrogenase-6-phosphogluconolactonase (Plasmodium falciparum 3D7) inhibition for COC(=O)C(C(=O)Nc1cccc(Cl)c1C)C1CCCC1 (stereo unspecified)
5.12

Notebook: pull reported inhibition for glucose-6-phosphate dehydrogenase-6-phosphogluconolactonase (Plasmodium falciparum 3D7), entry O=C(Nc1ccc(-c2cscn2)cc1)C1CCCN(Cc2ccc(CO)o2)C1 (stereo unspecified)
-2.34

Param readout= inhibition; system= glucose-6-phosphate dehydrogenase-6-phosphogluconolactonase (Plasmodium falciparum 3D7); entry= O=C(COc1ccc([N+](=O)[O-])cc1Cl)Nc1ccc2[nH]c(=O)[nH]c2c1 ; returns value.
13.1

Checklist item: inhibition tested on glucose-6-phosphate dehydrogenase-6-phosphogluconolactonase (Plasmodium falciparum 3D7), entry Cc1ccc(NCc2n[nH]c(=S)n2-c2ccccc2)cc1Cl , value?
17.7

Item Cc1ccnc(-n2sc3ccccc3c2=O)n1 with glucose-6-phosphate dehydrogenase-6-phosphogluconolactonase (Plasmodium falciparum 3D7) - inhibition?
97

I'm curious: which inhibition was measured for COc1ccc2c(c1)c(=Cc1ccc(N(C)C)cc1)c1cc(-c3ccccc3)[n+](C)n12 tested on glucose-6-phosphate dehydrogenase-6-phosphogluconolactonase (Plasmodium falciparum 3D7)?
70
